system: Escherichia coli expressing NDM-1 (CLB30005); experiment: Antibiotic potentiation activity: synergistic concentration (MITC95) with imipenem, growth by OD600; type: cell-based; conditions: 95% inhibition of bacterial growth, strain CLB30005
Listing: NDM1 EC30005 MITC95 of selected compounds
# unit: µM | format: bare number

1) CC(C)CCCCC[C@H](C(=O)O)[C@H](Cc1ccc2c(c1)OCO2)c1nnn[nH]1	100
2) CCC[C@H](C(=O)O)[C@H](Cc1ccccc1)c1nnn[nH]1	9.4
3) CCC[C@H](C(=O)O)[C@H](Cc1ccc(-c2cccc(C3CCCNC3)c2)cc1)c1nn[nH]n1 (stereo partly drawn)	4.7

// "O=C(O)[C@@H](C1CCCC1)[C@H](Cc1ccccc1)c1nnn[nH]1" : NDM1 EC30005 MITC95 value = 18.8

Sample "CCC[C@H](C(=O)O)[C@H](Cc1ccc(-c2ccc3c(c2)CNC3=O)cc1)c1nnn[nH]1" ; NDM1 EC30005 MITC95 observed: 25

What the record says about "CCC[C@H](C(=O)O)[C@H](Cc1ccc(Cl)cn1)c1nnn[nH]1" : NDM1 EC30005 MITC95 is 8.3

Lookup result for "CCC[C@H](C(=O)O)[C@H](Cc1ccc(-c2cccc(OC3CCNCC3)n2)cc1)c1nn[nH]n1" ; measured NDM1 EC30005 MITC95: 27

For this compound ( "CC[C@H](C)[C@H](C(=O)O)[C@H](Cc1ccc(-c2ccc(-c3nnn[nH]3)cc2)cc1)c1nn[nH]n1" ), measured NDM1 EC30005 MITC95 is 18.8

Note to self: NDM1 EC30005 MITC95 recorded for "CCC[C@H](C(=O)O)[C@H](Cc1ccc(Br)nc1)c1nnn[nH]1" was 12.5

The compound identified as CCC[C@H](C(=O)O)[C@H](Cc1ccc(-c2ccc3c(c2)CCC(N)C3)cc1)c1nn[nH]n1 (stereo partly drawn) registered its NDM1 EC30005 MITC95 at 4.7

Summary for this compound, "CCC[C@H](C(=O)O)[C@H](Cc1ccc(-c2cccc(CN3CCCCC3)c2)cc1)c1nn[nH]n1" : NDM1 EC30005 MITC95 is 18.8

NDM1 EC30005 MITC95 reported for this compound "O=C(O)[C@@H](CCC1CCCCC1)[C@H](Cc1ccccc1)c1nnn[nH]1" : 25
